Hello, the source for this data is BindingDB's records for patent US9161922, in case you need it.

testedTarget: Primary amine oxidase, liver isozyme (Bos taurus, UniProt Q29437)
Sequence (Q29437 17-762 limits assumed): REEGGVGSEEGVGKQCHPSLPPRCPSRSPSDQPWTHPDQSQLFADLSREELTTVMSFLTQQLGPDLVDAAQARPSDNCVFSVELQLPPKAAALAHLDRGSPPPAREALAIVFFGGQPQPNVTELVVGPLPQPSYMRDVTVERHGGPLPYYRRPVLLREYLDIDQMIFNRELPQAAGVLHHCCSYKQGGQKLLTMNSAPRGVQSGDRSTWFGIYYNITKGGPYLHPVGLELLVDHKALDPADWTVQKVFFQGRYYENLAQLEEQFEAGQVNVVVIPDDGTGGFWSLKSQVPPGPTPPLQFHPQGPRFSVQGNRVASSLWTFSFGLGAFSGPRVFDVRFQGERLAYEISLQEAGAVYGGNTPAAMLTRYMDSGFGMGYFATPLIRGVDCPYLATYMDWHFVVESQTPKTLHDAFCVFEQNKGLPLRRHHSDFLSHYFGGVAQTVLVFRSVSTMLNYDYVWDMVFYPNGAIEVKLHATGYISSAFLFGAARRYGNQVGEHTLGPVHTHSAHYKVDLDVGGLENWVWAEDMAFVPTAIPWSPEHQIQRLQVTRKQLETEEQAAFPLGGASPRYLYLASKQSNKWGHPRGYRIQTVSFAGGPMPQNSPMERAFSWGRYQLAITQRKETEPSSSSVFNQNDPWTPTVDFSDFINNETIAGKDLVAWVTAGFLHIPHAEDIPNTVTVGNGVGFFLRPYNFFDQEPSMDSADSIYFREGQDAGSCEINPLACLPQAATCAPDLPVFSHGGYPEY
pIC50: −log10 of the molar value.
# pIC50 >= 5 gives label 1, anything below gives label 0

NCCC#Cc1cccnc1 [US9161922, Table 2, Compound 6] :: label 1
NCC#Cc1ccccc1 [US9161922, Table 1, Compound 3] :: label 0

Next:
In plain terms: is recorded pIC50 at least 5 for CC#CC(CN)c1ccccc1 (stereo unspecified) [US9161922, Table 2, Compound 8] ?
label 0

====

Observed IC50 for Primary amine oxidase, liver isozyme (Bos taurus, UniProt Q29437), reported per entry below.
Report the figure in µM without appending any unit label.

Below: 3 compounds and their reported IC50.
NCC#CCNCCc1ccccc1 [US9161922, Table 1, Compound 2] :: 500
NCCC#Cc1ccccc1 [US9161922, Table 2, Compound 3] :: 13.5
NCC#CCN [US9161922, Table 1, Compound 6] :: 20

Pending compound:
Name the value of IC50 reported for NC/C=C/CN [US9161922, Table 1, Compound 8] when tested on Primary amine oxidase, liver isozyme (Bos taurus, UniProt Q29437).
2000
